Origin of values: PubChem BioAssay (NCI)

Assign TGI to each entry below.
Test system: MDA-N
Assay: NCI tumour cell line growth inhibition, 48 h

# annotated cases, reported TGI shown
Input line: Look up TGI: `Cc1cc2ccccc2c[n+]1CC(O)C[n+]1cc2ccccc2cc1C`
Output line: > 100 µM

Input line: Entry to check: `Cc1csc2c1C(=O)c1ccsc1C2=O`
Output line: 0.889 µM

Input line: Entry to check: `O=C(O)/C=C(/CC(=O)O)C(=O)O`
Output line: 54.6 µM

Input line: Entry to check: `C/C(=C\c1ccc(Cl)cc1)C(C)(C)C(=O)O`
Output line: > 100 µM

Input line: Entry to check: CC(=O)N(CN1C(=O)CCC1C(=O)O)c1ccccc1 (configuration not stated)
Output line: > 100 µM

Input line: Entry to check: `O=c1[nH]cc(CS(=O)(=O)Cc2c[nH]c(=O)[nH]c2=O)c(=O)[nH]1`
Output line: > 100 µM

// below: TGI requested for another compound
Input line: Look up TGI: `Nc1[nH]c(=O)ncc1F`
Output line: > 100 µM

###

Test system: DMS 273 small cell lung
Assay: NCI tumour cell line growth inhibition, 48 h
property.measured: TGI

Input line: Look up TGI: `CN1CCn2c(Br)ccc2C1=O`
Output line: > 100 µM

Consider the following items and state reported TGI for each.
1. O=S1(=O)NNC(=NCc2ccc(Cl)cc2)c2ccccc21
2. C/C(=N\NC(N)=O)C(CN1CCCCC1)C(c1ccccc1)c1c(O)c2ccccc2oc1=O (stereo not given)
3. NC(Cc1cc(I)c(O)c(I)c1)C(=O)O (stereo not given)

Output line:
1: > 100 µM; 2: > 100 µM; 3: > 322 µM

Input line: Look up TGI: C[Si](C)(C)/C=C/CCC(C=O)(CCCl)c1ccccc1 (stereo not given)
Output line: 55.2 µM

###

Test system: MDA-N
Assay: NCI tumour cell line growth inhibition, 48 h
property.measured: TGI (µM)
Answers are plain numbers, in µM.

Input line: Look up TGI: `O=C1c2ccccc2C(=O)c2c(NCCCNCCO)ccc(NCCCNCCO)c21`
Output line: 20

Input line: Entry to check: COC(=O)C1=C(O)C(C(=O)OC)[C@@]2(O)[C@@H](C(=O)OC)C(c3ccc(OC(=O)/C(=C/c4ccc(Cl)cc4)c4ccc(Cl)cc4)cc3)C[C@@H]1[C@@H]2C(=O)OC (some centres undefined)
Output line: 51.9

// below: TGI requested for another compound
Input line: Look up TGI: `CCCCCc1cc2c(cc1O)CC[C@@H]1[C@@H]2CC[C@]2(C)[C@@H](O)CC[C@@H]12`
Output line: 35.1

###

Assign GI50 to each entry below.
Test system: SF-539 CNS
Test: NCI tumour cell line growth inhibition, 48 h

Consider the following items and state reported GI50 for each.
1. C/C1=C\[C@H](C)C[C@H](C)OC(=O)C[C@H](c2ccc(O)cc2)NC(=O)[C@@H](Cc2c(Br)[nH]c3ccccc23)N(C)C(=O)[C@H](C)NC(=O)[C@@H](C)C1
2. CC1(C)N=C(N)N=C(N)N1c1cccc(C#N)c1
3. Nc1ncnc2c1c(C(F)(F)F)cn2[C@@H]1O[C@H](CO)[C@@H](O)[C@H]1O
4. Cn1c2ccccc2c(=Nc2ccccc2)c2c3ccccc3[nH]c21
5. CC(CN=C(CC(=O)c1ccc(Br)cc1)c1ccccc1)N=C(CC(=O)c1ccc(Br)cc1)c1ccccc1 (stereo not given)
6. COc1cc(C)c(C(=O)O[C@H]2[C@H](O[C@H]3[C@@H](O)COC(O[C@H]4C[C@H]5[C@@H]6CC=C7C[C@@H](O)CC[C@]7(C)[C@H]6CC[C@]5(C)[C@H]4[C@H](C)C(=O)CCC(C)C)[C@@H]3OC(C)=O)OC[C@@H](O)[C@@H]2O)c(C)c1 (stereo not given in full)

Output line:
["238 nM", "3740 nM", "642 nM", "1170 nM", "> 100000 nM", "< 10 nM"]
